Reported protein stability index values are given for each entry in this list.
Experiment: protein stability index of a GFP-peptide fusion (yeast GPS) (PSI 1-4); higher = more stable; sorted into four equal gates, so the index is relative within each strain
Conditions: ubr1∆
Form rule: numeric answer, no unit written next to it.

Sequence Record: GTILSSAGDDGKVRLWK [YGL100W/SEH1]
Numeric Value: 3.38

Identify protein stability index associated with the sequence DNGESAFRTLRLARSEK [RPL13A]
3.31

====

Assay: protein stability index of a GFP-peptide fusion (yeast GPS) (PSI 1-4); higher = more stable; sorted into four equal gates, so the index is relative within each strain
Details: pdr5∆
Criterion: protein stability index meeting or surpassing 3. Met: Fulfilled. Not met: Not fulfilled.

Completed entries (count: 2):
Sequence Record: PLITRHCYPRQLCQITC [RRP46]
Discrete Label: Not fulfilled

Sequence Record: SSNILEDILYYSTCPSE [SRB8]
Discrete Label: Not fulfilled

Confirm if protein stability index reported for the sequence KMLKIWTMAFRTMDDIK [ECM29] is 3 or above.
Not fulfilled

Confirm if protein stability index reported for the sequence ADVSIKSILQEIRRSLS [POP5] is 3 or above.
Not fulfilled
